Kindly supply the reported PBM binding z-score values for the records listed here.
- System: THRa homodimer (NR concentration 90 nM)
- testMethodNotes: PBM binding z-score (relative to random genomic background probes); higher = stronger binding; sequences stand for … in GC…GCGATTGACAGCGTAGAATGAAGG

Check out these entries, answers already filled in.
* AGAATGAGGTTATTAAGACCAGGGAATTGCGGTC | 0.47
* ATCTCTAGGTAAGACTCAGTTCAGTGATGAACGC | 0.755
* ATCTCTAGGTAAAGATTGTTCAGTGAATGCAAAT | 0.375
* CCTTACGGGTCACTGACAGGTTATAGCTTTTGGA | 0.24
* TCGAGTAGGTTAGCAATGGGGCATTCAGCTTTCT | -0.716
* CGTCCAAGGTCAAAGCTCAGTGAAGAGATGACGG | 2.02

State recorded PBM binding z-score for all listed sequences.
1. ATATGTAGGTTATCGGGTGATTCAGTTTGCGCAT
2. TCTCGGAGGATACGAAAGGTCAGAGCTCGACATC
3. CCTAGCAGGCCAGGGACACTCAAGCATTTCGCTT
4. AACGAAAGGTCGTGAGGTGAGTATACAGAAAGGC
5. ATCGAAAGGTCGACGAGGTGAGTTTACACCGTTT

Result:
1.49
0.363
0.193
1.33
0.782

Return reported PBM binding z-score values for all items listed beneath this line.
1. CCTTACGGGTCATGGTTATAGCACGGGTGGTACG
2. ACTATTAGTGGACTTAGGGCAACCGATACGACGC
3. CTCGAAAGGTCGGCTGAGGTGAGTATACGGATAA

Result:
1. -0.082
2. 0.136
3. 1.12
